assay_target: purified, full length dDAT (Drosophila melanogaster)
Construct: Full length dDAT with a C-terminal thrombin cleavage site followed by a His8-tag; made in house; host or cells: Expi293F suspension cells transduced with BacMam baculovirus (virus produced in Sf9)
Sequence (Q7K4Y6 whole entry): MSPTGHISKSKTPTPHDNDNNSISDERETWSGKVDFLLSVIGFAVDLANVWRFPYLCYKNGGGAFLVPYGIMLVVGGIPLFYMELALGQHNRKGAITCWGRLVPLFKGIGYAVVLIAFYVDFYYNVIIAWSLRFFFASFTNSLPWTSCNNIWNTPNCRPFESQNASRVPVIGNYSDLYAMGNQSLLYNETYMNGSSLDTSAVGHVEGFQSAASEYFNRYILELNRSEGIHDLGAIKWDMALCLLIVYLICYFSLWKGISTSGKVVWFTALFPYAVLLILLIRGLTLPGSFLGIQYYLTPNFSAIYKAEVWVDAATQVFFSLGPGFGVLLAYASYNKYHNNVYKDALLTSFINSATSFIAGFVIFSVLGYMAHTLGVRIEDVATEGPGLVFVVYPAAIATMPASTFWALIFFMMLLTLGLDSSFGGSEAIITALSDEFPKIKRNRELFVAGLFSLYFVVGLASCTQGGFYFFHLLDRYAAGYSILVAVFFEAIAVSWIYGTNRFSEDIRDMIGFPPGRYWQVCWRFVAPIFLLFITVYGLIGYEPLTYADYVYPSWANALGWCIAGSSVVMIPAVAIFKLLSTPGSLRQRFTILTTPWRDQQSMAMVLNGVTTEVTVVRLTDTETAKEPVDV
experimental_details: Competitive inhibition of [3H]nisoxetine binding to purified dDAT by scintillation proximity assay (SPA)
experimental_setup: read-out: dDAT Ki
Method: Binding of substrates and inhibitors to purified dDAT was assessed through saturation and competition binding by scintillation proximity assay (SPA). This mixture was incubated on rotation for 45 min in darkness at 4 °C. The dDAT-SPA buffer mixture was added to the wells along with 100 nM of the desired tritiated ligand (often at 10% specific activity) and the dilution series of the unlabelled competitor. […]
pKi: −log10 of the molar value.
Response key: 1.0 means pKi >= 5; 0.0 means pKi < 5.

A selection of reference data follows.
# compound, assigned_label
data = [
    ("NC[C@H](O)c1ccc(O)c(O)c1 [Norepinephrine]", 0.0),
    ("CC(O)CN1CCN(CC[S+]([O-])C(c2ccc(F)cc2)c2ccc(F)cc2)CC1 (stereo not drawn)", 0.0),
]

Prompt: Does `COC(=O)[C@H]1[C@@H](c2ccc(F)cc2)C[C@@H]2CC[C@H]1N2C` have a reported pKi of at least 5?
Completion: 0.0

Prompt: Does `CN(C)CCC=C1c2ccccc2CCc2ccccc21` have a reported pKi of at least 5?
Completion: 1.0

Prompt: Does COC(=O)[C@H]1C(c2ccc(I)cc2)C[C@@H]2CC[C@H]1N2C (stereo partly drawn) have a reported pKi of at least 5?
Completion: 1.0
